src = ChEMBL document CHEMBL4808213

- SYSTEM NAME: UniProt Q8NER1
- Sequence (Q8NER1 whole entry): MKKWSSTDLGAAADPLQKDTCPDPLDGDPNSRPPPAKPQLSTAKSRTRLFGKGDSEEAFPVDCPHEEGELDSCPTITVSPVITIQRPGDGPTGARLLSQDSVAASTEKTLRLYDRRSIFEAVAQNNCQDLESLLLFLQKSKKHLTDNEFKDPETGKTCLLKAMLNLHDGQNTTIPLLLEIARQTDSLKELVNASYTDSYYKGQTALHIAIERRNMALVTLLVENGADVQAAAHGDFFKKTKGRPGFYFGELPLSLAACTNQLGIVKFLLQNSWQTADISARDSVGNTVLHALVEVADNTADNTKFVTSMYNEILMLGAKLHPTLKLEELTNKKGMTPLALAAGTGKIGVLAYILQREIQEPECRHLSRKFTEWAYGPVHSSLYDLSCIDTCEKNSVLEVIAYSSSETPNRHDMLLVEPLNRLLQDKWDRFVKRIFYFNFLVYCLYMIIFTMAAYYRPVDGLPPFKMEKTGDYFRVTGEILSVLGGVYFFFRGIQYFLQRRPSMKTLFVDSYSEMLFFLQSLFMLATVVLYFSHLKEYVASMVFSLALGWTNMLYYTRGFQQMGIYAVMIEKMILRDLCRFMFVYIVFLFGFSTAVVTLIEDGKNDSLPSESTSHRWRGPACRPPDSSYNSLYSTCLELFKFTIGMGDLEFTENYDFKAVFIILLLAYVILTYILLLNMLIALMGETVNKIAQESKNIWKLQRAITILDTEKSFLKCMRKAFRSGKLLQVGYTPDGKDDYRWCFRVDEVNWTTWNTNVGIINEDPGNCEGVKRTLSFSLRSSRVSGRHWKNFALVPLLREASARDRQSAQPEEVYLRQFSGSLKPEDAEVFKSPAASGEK
- PROTOCOL DETAILS: Antagonist activity at human TRPV1 expressed in CHO cells assessed as inhibition of capsaicin-induced TRPV1 activation by FLIPR method
PARAMETER: Ki (nM)

The examples below pair each entry with its known result.
| COMPOUND | DISPLAY UNIT | OBSERVED MEASUREMENT |
| --- | --- | --- |
| CC(C)(C)c1cc(CNC(=O)Cc2ccc(F)cc2Cl)n(-c2cccc(Cl)c2)n1 | nM | 19.9 |
| CC(C)(C)c1cc(CNC(=O)Cc2ccc(Cl)cc2Cl)n(-c2cccc(Cl)c2)n1 | nM | 16.7 |
| O=C(Cc1ccc(Cl)cc1)NCc1cc(C(F)(F)F)nn1-c1cccc(Cl)c1 | nM | 6.3 |

[A] O=C(Cc1ccc(F)cc1F)NCc1cc(C(F)(F)F)nn1-c1cccc(Cl)c1
[B] CC1CCN(c2nc(C(F)(F)F)ccc2CNC(=O)Cc2ccc(F)c(C(F)(F)F)c2)CC1
[C] O=C(Cc1ccc(Cl)c(F)c1)NCc1cc(C(F)(F)F)nn1-c1cccc(Cl)c1
[D] CC1CCN(c2nc(C(F)(F)F)ccc2CNC(=O)[C@@H](C)c2ccc(NS(C)(=O)=O)c(F)c2)CC1 (racemic)
Exercise: # sort list by recorded Ki, greatest to least Response format: the labels, sorted as the prompt asks.
Key: A, C, B, D
(A: 43.3 nM, C: 20.9 nM, B: 9.8 nM, D: 0.3 nM)

[A] CC1CCN(c2nc(C(F)(F)F)ccc2CNC(=O)Cc2c(Cl)cccc2Cl)CC1
[B] CC(C)(C)c1cc(CNC(=O)Cc2cccc(F)c2F)n(-c2cccc(Cl)c2)n1
[C] O=C(Cc1cc(F)ccc1F)NCc1cc(C(F)(F)F)nn1-c1cccc(Cl)c1
[D] O=C(Cc1cccc(Cl)c1Cl)NCc1cc(C(F)(F)F)nn1-c1cccc(Cl)c1
Exercise: # sort list by recorded Ki, greatest to least Response format: the labels, sorted as the prompt asks.
Key: C, A, D, B
(C: 58.9 nM, A: 39.7 nM, D: 22.6 nM, B: 6.9 nM)

[I] CC1CCN(c2nc(C(F)(F)F)ccc2CNC(=O)Cc2cccc(Cl)c2)CC1
[II] CC(C)(C)c1cc(CNC(=O)Cc2c(F)cccc2Cl)n(-c2cccc(Cl)c2)n1
Exercise: Hey, between I and II which has a smaller measured Ki? API: response body contains the label of the selected item.
Key: I
